Value source: paper PMC7926793

# Tested on: OVCAR-8
# test_details: NCI 60 cell line screen (Ovarian Cancer)
# Format: cell-based, human
# conditions: OVCAR-8, single dose 10 µM
property_name: Growth percentage (%)
The reply should contain only the number, in %.

Known Growth percentage results, listed for orientation:
compound	Growth percentage / %
COc1ccc(C(c2cc(OC)c(OC)c(OC)c2)n2cncn2)cc1O (centres unmarked) [19e]	13.43
COc1ccc(C(c2cc(OC)c(OC)c(OC)c2)N2CCCC2)cc1 (centres unmarked) [25g]	95.58
COc1ccc(C(c2cc(OC)c(OC)c(OC)c2)N2CCCCC2)cc1 (centres unmarked) [26b]	50.11
COc1ccc(C(c2cc(OC)c(OC)c(OC)c2)N2CCN(Cc3ccccc3)CC2)cc1 (centres unmarked) [27d]	92.58

Would you mind telling me what Growth percentage value was observed for COc1ccc(C(c2cc(OC)c(OC)c(OC)c2)n2ccnc2)cc1O (centres unmarked) [21l] ?
10.28

* * *

# Test system: SNB-19
# test_details: NCI 60 cell line screen (CNS Cancer)
# Assay type: cell-based, human
# conditions: SNB-19, single dose 10 µM
property_name: Growth percentage (%)
Express it in %; write the number only.

compound	value_reported
COc1ccc(C(c2cc(OC)c(OC)c(OC)c2)n2cncn2)cc1O (centres unmarked) [19e]	33.31

Give its Growth percentage value. Item: COc1ccc(C(c2cc(OC)c(OC)c(OC)c2)N2CCCC2)cc1 (centres unmarked) [25g]
90.50

Then this compound: COc1ccc(C(c2cc(OC)c(OC)c(OC)c2)N2CCCCC2)cc1 (centres unmarked) [26b]
30.43

What do you get for COc1ccc(C(c2cc(OC)c(OC)c(OC)c2)n2ccnc2)cc1O (centres unmarked) [21l] ?
30.51

Input COc1ccc(C(c2cc(OC)c(OC)c(OC)c2)N2CCN(Cc3ccccc3)CC2)cc1 (centres unmarked) [27d]
69.95

* * *

Target chain: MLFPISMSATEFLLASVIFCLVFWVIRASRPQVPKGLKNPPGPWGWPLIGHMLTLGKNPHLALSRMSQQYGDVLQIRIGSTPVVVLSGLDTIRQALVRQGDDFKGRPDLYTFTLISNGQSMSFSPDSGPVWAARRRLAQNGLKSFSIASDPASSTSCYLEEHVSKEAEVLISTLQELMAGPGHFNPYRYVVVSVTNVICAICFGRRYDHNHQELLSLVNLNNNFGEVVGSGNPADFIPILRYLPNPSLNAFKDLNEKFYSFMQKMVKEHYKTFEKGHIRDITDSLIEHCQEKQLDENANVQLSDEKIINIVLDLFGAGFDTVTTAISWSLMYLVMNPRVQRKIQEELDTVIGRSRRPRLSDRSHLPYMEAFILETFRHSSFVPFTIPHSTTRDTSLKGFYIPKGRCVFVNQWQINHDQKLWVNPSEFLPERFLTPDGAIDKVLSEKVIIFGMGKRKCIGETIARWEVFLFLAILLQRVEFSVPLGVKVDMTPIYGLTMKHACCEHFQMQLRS
# IC50 annotations

Recorded IC50, per entry:
compound	IC50
COc1ccc(C(c2cc(OC)c(OC)c(OC)c2)n2cncn2)cc1O (stereo not drawn) [19e]	> 53.8 µM
COc1ccc(C(c2cc(OC)c(OC)c(OC)c2)n2nccn2)cc1O (stereo not drawn)	> 53.8 µM

Data request, read-out IC50, for COc1ccc(C(c2cc(OC)c(OC)c(OC)c2)n2ccnc2)cc1O (stereo not drawn) [21l]
> 54 µM
